Data origin, for the record: the kinase profiling compilation of Christmann-Franck et al. (2016)

# Tested on: PRKACA (mouse)
# Condition Parameters: compound 10.0 µM; accession and sequence are those of the human protein
Observed Property: inhibition (%)

Q: Could you tell me which inhibition is on file for NC1N[N](=Cc2coc3ccccc3c2=O)->[Cu]([Cl])([Cl])[SH]=1 ?
Ans: 7

Q: Same again, this time with CC(C)(C)n1nc(-c2cccc3ccccc23)c2c(N)ncnc21
Ans: 32

Q: Same again, this time with COc1ccc(Cl)cc1NC(=O)Nc1cc(C)nc2ccccc12
Ans: 5

A. C=CC(=O)c1ccc2ccccc2c1
B. O=C1Nc2cc(Br)ccc2/C1=C1/Nc2ccccc2/C1=N\O
Q: Lowest inhibition? choose A or B Indicate which entry you chose by stating its label.
Ans: A
